Tested on: Plasmodium berghei
Test: Screen against P. berghei liver stage (PbLuc), transformed with Luciferase, at 10uM
Assay type: functional, HepG2
Settings: tested at 10 uM
About 8,600 (12%) of roughly 69,000 compounds showed an effect of 50% or more. The list comes from a sample in which strong results are over-represented; it also holds close analogues and randomly drawn compounds.
Everything with INHIBITION lower than 40% is Condition not met; everything else, including exactly 40%, is Condition met.

Input line: Could you tell me if the measured INHIBITION of CC(C)=CCN1C[C@@H]2CC[C@H]1CN(C(=O)c1ccc3c(c1)OCO3)C2 reaches 40% or more?
Output line: Condition not met

Input line: Assess whether reported INHIBITION for Cc1cccc(CN2CCC3(CC2)CN(c2cnn(C)c2)C(=O)CO3)n1 sits at 40% or higher.
Output line: Condition met

Input line: Say whether O=C(NC1CCN(CC2CC2)C1)c1ccc(N2CCC(O)CC2)cc1 (stereo not drawn) shows INHIBITION of 40% or more.
Output line: Condition met

Input line: hey, is INHIBITION for this one >= 40%? CS(=O)(=O)N1CCCC12CCCN(C(=O)c1ccnnc1)C2 (stereo not drawn)
Output line: Condition not met

Input line: Tell me whether INHIBITION is at least 40% here: COc1ccc(-c2cc(CN)nc3ccnn23)cc1
Output line: Condition not met

Input line: Check this compound for INHIBITION at or above 40%: COC(=O)c1cnc2c(c(C)nn2C)c1OC
Output line: Condition met

Input line: For this compound, is measured INHIBITION 40% or higher? Cc1cccc(CN2CCC3(CCN(c4cccnc4)C3=O)C2)n1 (stereo not drawn)
Output line: Condition met

Input line: Textbook exercise: given the entry Cn1cc(N2CC3(COCCN(Cc4nccs4)C3)OCC2=O)cn1 (stereo not drawn) , state whether its INHIBITION is greater than or equal to 40%.
Output line: Condition met

Input line: Item Cn1cc(N2CC3(CCN(Cc4ccsc4)CC3)OCC2=O)cn1 with INHIBITION of 40% or above?
Output line: Condition met

Input line: Please tell me: is the compound Cn1cc(N2CC3(COCCN(Cc4ccsc4)C3)OCC2=O)cn1 (stereo not drawn) at or over 40% in terms of INHIBITION?
Output line: Condition not met

Input line: INHIBITION >= 40% for CN(C)CC1(O)CCN(C(=O)c2ccc(-n3cccn3)cc2Cl)C1 (stereo not drawn) ?
Output line: Condition not met

Input line: Item COc1c(C(=O)N2CCNC(=O)C2)cnc2c1c(C)nn2C with INHIBITION of 40% or above?
Output line: Condition not met

Input line: Could you please find out whether CN(C)C[C@]12COC[C@H]1CN(Cc1ccc3c(c1)OCO3)C2 has INHIBITION that meets 40% or exceeds it?
Output line: Condition not met

Input line: Reported INHIBITION reaches at least 40% for Cn1cc(N2CC3(COCCN(Cc4ccccn4)C3)OCC2=O)cn1 (stereo not drawn) ?
Output line: Condition not met

Input line: Form field: INHIBITION at least 40%? Entry: COc1nccc(N2CC[C@@H](N3CCN(C)CC3)[C@H](O)C2)c1C#N
Output line: Condition not met

Input line: Please indicate if the recorded INHIBITION for OCCCN1CCCC1c1nc(Cc2ccc(F)cc2)no1 (stereo not drawn) meets or exceeds 40%.
Output line: Condition not met

Input line: hey, is INHIBITION for this one >= 40%? O=C(c1cnoc1)N1CCC[C@]2(C[C@@H](Oc3ccccn3)CO2)C1
Output line: Condition not met

Input line: Test whether the compound Cc1c(C[S+](C)[O-])cccc1NC(=O)c1cc(Cl)ccn1 (stereo not drawn) records INHIBITION of 40% or higher.
Output line: Condition not met

Input line: Check if INHIBITION >= 40% (inclusive). Item: COc1ccc(CN2CCC[C@@H]3CN(C(=O)c4ccco4)C[C@@H]32)cc1
Output line: Condition not met

Input line: Does the reported INHIBITION for CC(C)(C)Nc1c(C2CCN(C(=O)C3CC3)CC2)nc2ccccn12 fall at or above the 40% mark?
Output line: Condition not met

Input line: Quick check, INHIBITION >= 40%? COCc1ncn2c1CN(C(=O)c1ccc[nH]1)CC2
Output line: Condition not met

Input line: Could you verify whether the entry O=C(CN1CCCC1c1nc(Cc2ccc(F)cc2)no1)NC1CC1 (stereo not drawn) shows INHIBITION of no less than 40%?
Output line: Condition met

Input line: Is reported INHIBITION greater than or equal to 40% here: CC(C)OCCCNC(=O)CS(=O)(=O)Cc1ccc(C(C)C)cc1
Output line: Condition not met

Input line: Can COC(=O)C1CCCCN1C(=O)c1cn(C/C=C/c2ccccc2)nn1 (stereo not drawn) be said to have INHIBITION at or above 40%?
Output line: Condition not met

Input line: Is INHIBITION at least 40%? Consider Cn1cc(N2CC3(CCN(Cc4ccccc4)CC3)OCC2=O)cn1
Output line: Condition not met

Input line: Please indicate if the recorded INHIBITION for CC(C)N1CCN(C(=O)C(C)n2cncn2)CC1 (stereo not drawn) meets or exceeds 40%.
Output line: Condition not met

Input line: Evaluate Cn1cc(N2CC3(CCN(Cc4nccs4)CC3)OCC2=O)cn1 : INHIBITION at minimum 40%?
Output line: Condition not met

Input line: Check this compound for INHIBITION at or above 40%: CN(Cc1cn(CC2CCNCC2)nn1)CC1CCCCO1 (stereo not drawn)
Output line: Condition not met

Input line: Check if INHIBITION >= 40% (inclusive). Item: CN1CC(=O)N(c2ccsc2)CC12CCN(C(=O)Nc1ccccc1)C2 (stereo not drawn)
Output line: Condition not met

Input line: Evaluate CCCC(C#N)NC(=O)c1sccc1CC (stereo not drawn) : INHIBITION at minimum 40%?
Output line: Condition met

Input line: Test whether the compound CC1CCc2n[nH]c(C(=O)NCCCc3ccco3)c2C1 (stereo not drawn) records INHIBITION of 40% or higher.
Output line: Condition not met

Input line: State whether the measured INHIBITION reaches 40%, counting equality as reaching it, for Cc1ccccc1C1(C(=O)NCCN2CCCC2)CCOCC1
Output line: Condition met

Input line: API: above_or_equal(metric=INHIBITION, cutoff=40%) for item COC(=O)[C@@H]1CCCN1C(=O)c1cn(C/C=C/c2ccccc2)nn1
Output line: Condition met

Input line: For this compound, is measured INHIBITION 40% or higher? CC(C)(C)OCCN1CCCC1c1nc(Cc2ccc(F)cc2)no1 (stereo not drawn)
Output line: Condition not met

Input line: Check the entry CCOC(=O)CSc1nnc(C(N)CC(C)C)o1 (stereo not drawn) : does INHIBITION equal or exceed 40%?
Output line: Condition not met

Input line: Reported INHIBITION at or above 40%? NC(=O)[C@@H]1CCCN1C(=O)c1cn(C/C=C/c2ccccc2)nn1
Output line: Condition met

Input line: Textbook exercise: given the entry CCCN1CCCC1c1nc(Cc2ccc(F)cc2)no1 (stereo not drawn) , state whether its INHIBITION is greater than or equal to 40%.
Output line: Condition not met
